Recorded I85 (mdl, pg/well) for the following compounds
tested on: DD-3 antibody; assay: Direct competitive EIA with immobilized DD-3 monoclonal antibody and competitor-HRP conjugate; type: binding, mouse; details: analyte 2,3,7,8-tetrachlorodibenzo-p-dioxin; listed competitor as HRP conjugate; DD-3 antibody

[
  {
    "smiles repr": "O=C(O)CCCOc1ccc(Cl)cc1Cl",
    "value units": "pg/well",
    "I85 (mdl, pg/well)": 13
  },
  {
    "smiles repr": "O=C(O)CCCC(=O)c1ccc(Cl)c(Cl)c1",
    "value units": "pg/well",
    "I85 (mdl, pg/well)": 13
  },
  {
    "smiles repr": "O=C(O)CCCSc1cc(Cl)ccc1Cl",
    "value units": "pg/well",
    "I85 (mdl, pg/well)": 15
  },
  {
    "smiles repr": "O=C(O)CCCCc1cc(Cl)ccc1Cl",
    "value units": "pg/well",
    "I85 (mdl, pg/well)": 25
  },
  {
    "smiles repr": "O=C(O)CCc1ccc(Cl)c(Cl)c1",
    "value units": "pg/well",
    "I85 (mdl, pg/well)": 20
  },
  {
    "smiles repr": "O=C(O)CCCOc1ccc(Cl)c(Cl)c1",
    "value units": "pg/well",
    "I85 (mdl, pg/well)": 15
  }
]
